- Tested on: circulatory insufficiency model of rats induced by injection of lauric-acid into their femoral artery
- experimental-details: Circulatory insufficiency model induced by lauric-acid in rats (lesion index)
- Assay type: in vivo, rat
- Set-up: key: summed toe lesion grades, +5 if heel reached; max 25 points
- protocol-conditions: male Wistar rats; 30 mg/kg multiple oral dosing (1 h prior to and 3 h after lauric-acid, then twice daily for 9 days); 10 days after lauric-acid injection; average, max 25 points
Below, each of the molecules is paired with its reported Lesion Index after 10 days value.
Form: value (number only, do not type unit).

CCCCCCOc1c(O)c2ccc(O)cc2oc1=O
8.1
CCCCCCCCCCOc1c(O)c2ccc(OCC(O)CO)cc2oc1=O (stereo not drawn)
7.9
CC(C)CCCOc1c(O)c2cccc(OCCO)c2oc1=O
7.8

Summary for this molecule, CC(C)CCCOc1c(O)c2cc(OCCO)ccc2oc1=O : Lesion Index after 10 days is 8.1

Summary for this molecule, CC(C)Oc1c(O)c2ccc(O)cc2oc1=O : Lesion Index after 10 days is 8.0

Summary for this molecule, CCCCCCCCOc1c(O)c2ccc(OCCC(=O)O)cc2oc1=O : Lesion Index after 10 days is 7.8

Values compiled from patent US20110021621A1.
